Tested on: MG-63 cell line
assayComment: solid tumor cell growth inhibition, MTT
Type: cell-based
conditions: Homo sapiens, MG-63, 72 h
Protocol: […] Obtaining 4000 well-growing human solid tumor cells and inoculating them into wells of a 96-well cell culture plate. […] Then the relative number of the living cells is determined by MTT method. […]
readoutName: IC50

Solved cases (5 shown):
compound	IC50
COC(=O)[C@]12CCC(C)(C)CC1C1=CCC3[C@@]4(C)CC(C(=O)NCCc5cccnc5)C(=O)C(C)(C)C4CC[C@@]3(C)[C@]1(C)CC2 (stereo partly drawn)	> 16 µg/mL
COC(=O)[C@]12CCC(C)(C)C[C@H]1C1=CC[C@@H]3[C@@]4(C)CC(C(=O)NCC5CC5)C(=O)C(C)(C)[C@@H]4CC[C@@]3(C)[C@]1(C)CC2 (stereo partly drawn)	> 16 µg/mL
COC(=O)[C@]12CCC(C)(C)CC1C1=CCC3[C@@]4(C)CC(C(=O)NC5CC5)C(=O)C(C)(C)C4CC[C@@]3(C)[C@]1(C)CC2 (stereo partly drawn)	> 16 µg/mL
COCCCNC(=O)C1C[C@]2(C)[C@H]3CC=C4[C@@H]5CC(C)(C)CC[C@]5(C(=O)OC)CC[C@@]4(C)[C@]3(C)CC[C@H]2C(C)(C)C1=O (stereo partly drawn)	> 16 µg/mL
CN(C)CCCNC(=O)C1C[C@@]2(C)C(CC[C@]3(C)C2CC=C2C4CC(C)(C)CC[C@]4(C(=O)O)CC[C@]23C)C(C)(C)C1=O (stereo partly drawn)	> 16 µg/mL

We next turn to a different compound, shown below.
Enquiry: Requested field: IC50. Item: CCN(CC)CCNC(=O)C1C[C@@]2(C)C(CC[C@]3(C)C2CC=C2C4CC(C)(C)CC[C@]4(C(=O)OC)CC[C@]23C)C(C)(C)C1=O (stereo partly drawn)
Return: 2.2 µg/mL

====

Test system: NB4 cell line
assayComment: leukemia cell growth inhibition, MTT
Format: cell-based
conditions: Homo sapiens, NB-4; NB4, 72 h
readoutName: IC50

compound	systemTested	result
CC1(C)CC[C@]2(C(=O)O)CC[C@]3(C)C(=CC[C@@H]4[C@@]5(C)CC[C@H](O)C(C)(C)[C@@H]5CC[C@]43C)[C@@H]2C1	NB4 cell line	> 16 µg/mL
COC(=O)[C@]12CCC(C)(C)CC1C1=CCC3[C@@]4(C)CC(C(=O)NCCCN5CCCC5)C(=O)C(C)(C)C4CC[C@@]3(C)[C@]1(C)CC2 (stereo partly drawn)	NB4 cell line	2.94 µg/mL

We next turn to a different compound, shown below.
Enquiry: Requested field: IC50. Item: COC(=O)[C@]12CCC(C)(C)CC1C1=CCC3[C@@]4(C)CC(C(=O)NC5CC5)C(=O)C(C)(C)C4CC[C@@]3(C)[C@]1(C)CC2 (stereo partly drawn)
Return: > 16 µg/mL

====

Test system: Hep G2 cell line
assayComment: solid tumor cell growth inhibition, MTT
Assay type: cell-based, human
conditions: Homo sapiens, HepG2, 72 h, Hep G2, 16 μg/mL compound, 72 h; read-out: IR (cell proliferation inhibition rate)
Give measured inhibition at 16 µg/mL for each item. Keep answers brief.
Give bare numbers, in %.

molecule	unitsLabel	inhibition at 16 µg/mL
COC(=O)[C@]12CCC(C)(C)CC1C1=CCC3[C@@]4(C)CC(C(=O)NCCCN5CCN(C)CC5)C(=O)C(C)(C)C4CC[C@@]3(C)[C@]1(C)CC2 (some centres unmarked)	%	99.7
COCCCNC(=O)C1C[C@]2(C)[C@H]3CC=C4[C@@H]5CC(C)(C)CC[C@]5(C(=O)OC)CC[C@@]4(C)[C@]3(C)CC[C@H]2C(C)(C)C1=O (some centres unmarked)	%	10

Provide the reported inhibition at 16 µg/mL of each entry below, same order.
1. COC(=O)[C@]12CCC(C)(C)CC1C1=CCC3[C@@]4(C)CC(C(=O)NCCc5cccnc5)C(=O)C(C)(C)C4CC[C@@]3(C)[C@]1(C)CC2 (some centres unmarked)
2. COC(=O)[C@]12CCC(C)(C)CC1C1=CCC3[C@@]4(C)CC(C(=O)NCCc5ccccn5)C(=O)C(C)(C)C4CC[C@@]3(C)[C@]1(C)CC2 (some centres unmarked)
3. COC(=O)[C@]12CCC(C)(C)C[C@H]1C1=CC[C@@H]3[C@@]4(C)CC(C(=O)NCCN5CCCCC5)C(=O)C(C)(C)[C@@H]4CC[C@@]3(C)[C@]1(C)CC2 (some centres unmarked)
4. CC1(C)CC[C@]2(C(=O)O)CC[C@]3(C)C(=CC[C@@H]4[C@@]5(C)CC(C(=O)NCCN6CCCC6)C(=O)C(C)(C)[C@@H]5CC[C@]43C)[C@@H]2C1 (some centres unmarked)
5. CN(C)CCCNC(=O)C1C[C@@]2(C)C(CC[C@]3(C)C2CC=C2C4CC(C)(C)CC[C@]4(C(=O)O)CC[C@]23C)C(C)(C)C1=O (some centres unmarked)
6. CCC(C)CNC(=O)C1C[C@@]2(C)C(CC[C@]3(C)C2CC=C2C4CC(C)(C)CC[C@]4(C(=O)OC)CC[C@]23C)C(C)(C)C1=O (some centres unmarked)

Return:
[51.4, 23.7, 100, 29.5, 32.1, 8.1]
